MEASUREMENT TARGET: FGFR3 (Homo sapiens)
Construct: purchased Upstate Company
Sequence (P22607 23-806, species assumed): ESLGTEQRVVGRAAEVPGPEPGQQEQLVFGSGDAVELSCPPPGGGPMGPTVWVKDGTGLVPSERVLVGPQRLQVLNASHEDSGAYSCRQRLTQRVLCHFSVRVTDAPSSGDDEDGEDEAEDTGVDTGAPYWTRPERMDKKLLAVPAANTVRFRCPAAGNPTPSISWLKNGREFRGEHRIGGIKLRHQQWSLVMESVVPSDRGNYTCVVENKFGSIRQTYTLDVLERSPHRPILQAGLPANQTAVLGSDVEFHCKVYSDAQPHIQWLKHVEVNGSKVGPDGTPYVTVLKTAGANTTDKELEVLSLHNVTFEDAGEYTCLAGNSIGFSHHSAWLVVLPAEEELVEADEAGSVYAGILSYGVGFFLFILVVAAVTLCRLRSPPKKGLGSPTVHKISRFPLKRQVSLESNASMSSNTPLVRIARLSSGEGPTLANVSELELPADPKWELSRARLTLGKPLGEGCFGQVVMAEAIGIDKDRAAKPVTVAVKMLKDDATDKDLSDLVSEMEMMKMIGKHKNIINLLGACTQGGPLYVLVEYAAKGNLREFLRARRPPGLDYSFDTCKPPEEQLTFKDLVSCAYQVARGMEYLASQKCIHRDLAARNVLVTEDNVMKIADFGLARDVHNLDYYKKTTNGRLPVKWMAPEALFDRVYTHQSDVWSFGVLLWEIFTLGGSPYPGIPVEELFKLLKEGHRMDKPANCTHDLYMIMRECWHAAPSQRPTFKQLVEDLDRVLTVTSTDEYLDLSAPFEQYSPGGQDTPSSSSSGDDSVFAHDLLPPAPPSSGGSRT
EXPERIMENT: Inhibition of FGFR3 kinase (fluorescence polarization kinase assay)
Assay type: biochemical
CONDITIONS: Table 2, class symbols; read-out: FGFR3 IC50
pIC50: −log10 of the molar value.
MEASURE: pIC50

Example entries begin here.
{"SMILES CODE": "COc1cc(OC)c(Cl)c(NC(=O)c2csc3c(Nc4ccc(C(=O)N5CCOCC5)cn4)ncnc23)c1Cl", "pIC50": "7.00 to 9.00"}
{"SMILES CODE": "COc1cc(OC)c(Cl)c(NC(=O)c2csc3c(Nc4cc(NCCN5CCOCC5)ncn4)ncnc23)c1Cl", "pIC50": "7.00 to 9.00"}
{"SMILES CODE": "COc1cc(OC)c(Cl)c(NC(=O)c2csc3c(Nc4ccc(CN5CCNC(=O)C5)cn4)ncnc23)c1Cl", "pIC50": "7.00 to 9.00"}
{"SMILES CODE": "CCN(CC)CCOc1ccc(Nc2ncnc3c(C(=O)Nc4c(Cl)c(OC)cc(OC)c4Cl)csc23)cc1", "pIC50": "6.00 to 6.30"}
{"SMILES CODE": "COc1cc(OC)c(Cl)c(NC(=O)c2csc3c(Nc4ccc(N5CCC(N6CCCC6)CC5)cc4)ncnc23)c1Cl", "pIC50": "7.00 to 9.00"}
{"SMILES CODE": "COc1cc(OC)c(Cl)c(/C=C/c2csc3c(N)ncnc23)c1Cl", "pIC50": "5.30 to 6.00"}

Now, please, on to the next compound.
Qu. Query (compound): `CCOC(=O)CNc1ncnc2c(C(=O)Nc3c(Cl)c(OC)cc(OC)c3Cl)csc12` ; field requested: pIC50
Ans. 5.30 to 6.00

# credit: patent US10112954B2
